Tested on: MDA-MB-231 breast
assay.overview: NCI-60 one-dose screen, 48 h (100 = growth as untreated, 0 = no growth, -100 = all killed)
reported.conditions: 10 µM unless noted
Procedure: Cells are grown in 96 well plates and exposed to the test compound for 48 hours. Compounds are tested at a single concentration, which is 10^-5 M for most compounds. The reported endpoint is percent growth (GI% or GIPRCNT), where numbers from 0 - 100% represent growth inhibition, and numbers from -100% - 0 represent cell death. For example, a value of 40 represents 60% growth inhibition. A value of 0 means no net growth occurred over the course of the experiment. […]
About 83,000 compounds went through this panel and 20% of them were active in at least one assay; those are over-represented in the sample as a whole. Active and inactive are the calls of the source. Rule for the calls: active = growth percent below 10; inactive = the rest.
assay.endpoint: growth

Examples with their reported growth follow.
{"columns": ["chemical.smiles", "system.tested", "growth"],
 "data": [
  ["c1cc2[nH]ncc2cc1-c1nc2ccc3[nH]ncc3c2c2c1CCCC2", "MDA-MB-231 breast", "31.1% (inactive)"],
  ["C=C(C)[C@@H]1CC[C@]2(C(=O)O)CC[C@]3(C)[C@H](CC[C@@H]4[C@@]5(C)C[C@@H](Cc6cn(CCO[C@@H]7O[C@H](COC(C)=O)[C@H](OC(C)=O)[C@H](OC(C)=O)[C@H]7OC(C)=O)nn6)[C@H](O)C(C)(C)[C@@H]5CC[C@]43C)[C@@H]12", "MDA-MB-231 breast", "48.1% (inactive)"],
  ["COc1ccccc1Nc1nc2c(s1)C1=CC[C@H]3[C@@H]4CC[C@H]([C@H](C)CCCC(C)C)[C@@]4(C)CC[C@@H]3[C@@]1(C)CC2", "MDA-MB-231 breast", "103% (inactive)"],
  ["Clc1ccc2c(c1)N(c1ncnc3ccc(-c4cnc5[nH]ncc5c4)cc13)CC2", "MDA-MB-231 breast", "27.3% (inactive)"],
  ["C#CCn1cnc2c(Nc3cccc(NC(=O)C=C)c3)ncnc21", "MDA-MB-231 breast", "80% (inactive)"]
]}

Can you share its growth? I mean this compound: CCOC(=O)C1=NN(c2ccccc2)C(=O)/C1=C\N1C(=O)CC(=O)NC1=S 91.8% (inactive)

# iterate: Cc1ccc(Sc2oc(-c3ccc(C)cc3)nc2[P+](c2ccccc2)(c2ccccc2)c2ccccc2)cc1 -12.5% (active)

====

Tested on: HOP-92 NSCLC
assay.overview: NCI-60 one-dose screen, 48 h (100 = growth as untreated, 0 = no growth, -100 = all killed)
reported.conditions: 10 µM unless noted
About 83,000 compounds went through this panel and 20% of them were active in at least one assay; those are over-represented in the sample as a whole.
assay.endpoint: growth (%)
Answer format: numeric, % implied, no suffix.

Examples with their reported growth follow.
{"columns": ["molecule", "growth [%]"],
 "data": [
  ["O=C1/C(=C/c2ccc(F)cc2)COc2ccc(O)cc21", 104],
  ["COc1cc(CNS(=O)(=O)c2ccc(C)cc2)ccc1OCc1cn(-c2ccc(F)cc2)nn1", 86.4],
  ["C=CCn1c(SCC(=O)NCc2cc(C)c(O)c(C)c2)nc2ccc(Cl)cc2c1=O", 82.2],
  ["Cc1nnc(-n2c(O)cc(=O)n(-c3ccccc3)c2=S)nc1/C=C/c1ccc(N(C)C)cc1", 43.7]
]}

Can you share its growth? I mean this molecule: Cn1cc(-c2csc(-c3c[nH]c4ccc(Br)cc34)n2)c2cnccc21 -86.2

# iterate: O=C1Nc2ccccc2[C@]12CC(c1ccccc1)=NN2 30.8

# iterate: Clc1ccc2c(c1)N(c1ncnc3ccc(-c4cnc5[nH]ncc5c4)cc13)CC2 -1.84

# iterate: COc1ccc(/C(C)=C(/c2ccc(OCCCN(C)C)cc2)c2ccc(OC(=O)Cc3ccccc3)cc2)cc1 50.5

# iterate: COc1ccc(C(=S)N2CCN(c3ccccc3Cl)CC2)cc1OC 86

# iterate: COCCn1c(-c2csc(-c3cn(C)c4ccc(OC)cc34)n2)cc2cccnc21 67.5

# iterate: Cc1ccc(C2=Nc3c(N)ncnc3NC(c3ccc4c(c3)OCO4)C2)cc1 (stereo not drawn) 8.52

# iterate: CNC(=O)c1cc(Oc2ccc3c(c2)sc2nc(-c4cc(OC)c(OC)c(OC)c4)cn23)ccn1 15.8

# iterate: CS(=O)(=O)Nc1cc(-c2ccc3ncnc(Nc4ccc5c(cnn5Cc5ccccn5)c4)c3c2)cnc1Cl 2.29

# iterate: Cc1ccc(Sc2oc(-c3ccc(C)cc3)nc2[P+](c2ccccc2)(c2ccccc2)c2ccccc2)cc1 -9.3

# iterate: CC1(C)CC2=C3C=C[C@@H]4[C@@]5(C)CCC(=O)C(C)(C)[C@@H]5CC[C@@]4(C)[C@]3(C)CC[C@@]2(C(=O)O)CC1=O 25.8

# iterate: CO[C@]12C=C/C(=C(/C(=O)OCc3cccnc3)C(=O)CCCCCCCC[C@@]3(OC)C=C/C(=C(/C(=O)OCc4cccnc4)C(=O)CCCCCCCC1)O3)O2 2.61

# iterate: COc1ccccc1NC(=O)Cn1cc(CN2CCN(c3ccnc4cc(Cl)ccc34)CC2)nn1 61.8

====

System: OVCAR-5 ovarian
assay.overview: NCI-60 one-dose screen, 48 h (100 = growth as untreated, 0 = no growth, -100 = all killed)
reported.conditions: 10 µM unless noted
Compounds without any hit were thinned out: in the full panel of roughly 83,000, 20% have a hit.
Please note: 1 applies when growth is 90% or greater, and 0 applies otherwise.

Entry O=C(CSc1nc2sc3c(c2c(=O)n1-c1ccccc1)CCCCC3)N/N=C/c1ccc(F)cc1 : is its growth no less than 90%? 0

# iterate: Cc1nc2sc(C(=O)Nc3cccc(Cl)c3C)c(N)c2cc1C(=O)c1ccccc1 0

# iterate: CCOC(=O)C1=NN(c2ccccc2)C(=O)/C1=C\N1C(=O)CC(=O)NC1=S 1

# iterate: COc1ccc(-c2csc(N(C(=O)N3CCN(c4cc5c(cc4F)c(=O)c(C(=O)O)cn5C4CC4)CC3)c3ccccc3)n2)cc1 0

====

System: SW-620 colon
assay.overview: NCI-60 one-dose screen, 48 h (100 = growth as untreated, 0 = no growth, -100 = all killed)
reported.conditions: 10 µM unless noted
Compounds without any hit were thinned out: in the full panel of roughly 83,000, 20% have a hit.
assay.endpoint: growth (%)
Answer format: numeric, % implied, no suffix.

Examples with their reported growth follow.
{"columns": ["chemical.smiles", "system.tested", "growth [%]"],
 "data": [
  ["O=C(Cn1cc(CN2C(=O)c3ccccc3S2(=O)=O)nn1)Nc1nc2ccccc2s1", "SW-620 colon", 105],
  ["COC(=O)c1cc(-c2ccc(OC)cc2)[nH]c1N/N=C/c1c(Cl)cccc1Cl", "SW-620 colon", 9.62],
  ["COCCn1cc(-c2nc(-c3cc4cccnc4n3CCOC)cs2)c2cc(OC)ccc21", "SW-620 colon", 49],
  ["Cc1ccc(Sc2nnc(/N=C3\\C(=O)Nc4ccccc43)s2)cc1", "SW-620 colon", 96.2],
  ["C=CCc1c(O)c(C(=O)/C=C/c2ccc(Cl)cc2)c(OC)c2ccoc12", "SW-620 colon", 37.3]
]}

Can you share its growth? I mean this compound: C#CCn1cnc2c(Nc3cccc(NC(=O)C=C)c3)ncnc21 99.6

# iterate: CN1CCN(c2ccc(NC(=O)c3nc4ccc5[nH]ncc5c4c4c3CCCC4)cc2C(F)(F)F)CC1 5

# iterate: Clc1ccc(Nc2nnc(COc3ccccc3)c3ccccc23)cc1 15.4

# iterate: OCc1cccc(-c2ccc3ncc(-c4nc(NC5CC5)ncc4F)n3c2)c1 0.326

# iterate: O=C(OCc1ccc2cccc(O)c2n1)N1CCN(C(=O)c2cc3cc(F)ccc3[nH]2)CC1 -62.8

====

Test system: EKVX NSCLC
assay.overview: NCI-60 one-dose screen, 48 h
reported.conditions: 10 µM unless noted
About 83,000 compounds went through this panel and 20% of them were active in at least one assay; those are over-represented in the sample as a whole. Activity calls are given as the source filed them. The calls were made as follows: active = growth percent below 10; inactive = the rest.
Field 'call' accepts label 1 for active, label 0 for inactive

What call does the record list for CCCCCCCCn1ccc2cc(NC(=O)CN3CCN(c4nc(C)cc(Cl)n4)CC3)ccc21 ? label 0

====

System: TK-10 renal
assay.overview: NCI-60 one-dose screen, 48 h (100 = growth as untreated, 0 = no growth, -100 = all killed)
reported.conditions: 10 µM unless noted
This is part of a sample that, as a whole, favours compounds with a hit. Of some 83,000 tested, about 20% had one in any assay.
Reported growth values for a set of compounds
Answer format: numeric, % implied, no suffix.

Examples with their reported growth follow.
{"columns": ["chemical.smiles", "recorded.measurement"],
 "data": [
  ["COc1ccc(-c2cc(-c3ccc(Cl)cc3)c(C#N)c(=O)n2CCCCC(=O)Nc2ccccc2N)cc1", 102],
  ["O=C(Nc1ccc(NC(=O)c2cc(=O)[nH]c3ccccc23)cc1)Nc1cccc(C(F)(F)F)c1", 134],
  ["Cn1c(=O)c2[nH]c(N/N=C/c3ccccc3Br)nc2n(C)c1=O", 82.8]
]}

Next compound, growth to be filled in.
Can you share its growth? I mean this compound: CC[C@]12C=CCN3CC[C@@]4(c5cc(NC(=O)CCC(=O)OCc6cn(Cc7ccc(F)cc7)nn6)c(OC)cc5N(C)[C@H]4[C@@](O)(C(=O)OC)[C@@H]1OC(C)=O)[C@@H]32 94
